The origin of these recorded values is PubChem BioAssay AID1159580.

Give normalized growth for every item shown.
- Assay Explanation: chemical genetic growth profiling, strain panel (AID 1159580);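 also: tested at 20 µM; growth read once vehicle control cultures reached saturation at 30 °C; 1 = growth at the plate median or of vehicle wells; lower values mean less growth of the strain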
- Settings: S. cerevisiae deletion strains, growth OD, locus YPL051W, strain arl3, hits give low values
In all, about 5,500 compounds went through this assay and about 2,000 (36%) were called active. Not shown: some 18% with an inconclusive outcome. This is one part of the list.
// response body must contain only the number

Memo: COc1cccc2c1C(=O)c1c(O)c3c(c(O)c1C2=O)C[C@@](O)(C(C)=O)C[C@@H]3O[C@H]1C[C@H](N)[C@H](O)[C@H](C)O1 , reported normalized growth: 0.958

Memo: Cc1ccc(-c2cc(C(F)(F)F)nn2-c2ccc(S(N)(=O)=O)cc2)cc1 , reported normalized growth: 1.02

Memo: CC1(C)CC(O)C2(C)CCC3(C)C(=CCC4C5(C)CCC(O)C(C)(CO)C5CCC43C)C2C1 (configuration not stated) , reported normalized growth: 1.02

Memo: C[C@]12CCC(=O)C=C1CCC1C2[C@@H](O)C[C@@]2(C)C1CC[C@]2(O)C(=O)CO (some centres not stated) , reported normalized growth: 0.927

Memo: CC(=O)O[C@@H]1CC[C@@]2(C)C(CC[C@]3(C)C2CC=C2C4CC(C)(C)CC[C@]4(C(=O)O)CC[C@]23C)C1(C)C (some centres not stated) , reported normalized growth: 0.833

Memo: COc1cccc2c1C(=O)c1c(O)c3c(c(O)c1C2=O)C[C@@](O)(C(=O)CO)C[C@@H]3O[C@H]1C[C@H](N)[C@@H](O)[C@H](C)O1 , reported normalized growth: 0.8

Memo: COc1cccc2c1C(=O)c1c(O)c3c(c(O)c1C2=O)C[C@@](O)(C(=O)CO)C[C@@H]3OC1C[C@H](N)[C@H](O)[C@H](C)O1 (some centres not stated) , reported normalized growth: 0.481
